B1: Pistol ribozyme (parent)
chain: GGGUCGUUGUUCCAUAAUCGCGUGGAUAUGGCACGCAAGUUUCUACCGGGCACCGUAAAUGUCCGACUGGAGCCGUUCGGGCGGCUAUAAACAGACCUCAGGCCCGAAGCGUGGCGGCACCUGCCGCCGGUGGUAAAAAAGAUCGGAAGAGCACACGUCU

# Variants of: B1
# Method notes: aptazyme ON/OFF ratio, guanine; higher = stronger switching; co-transcriptional cleavage with and without guanine
Recorded measurements of aptazyme ON/OFF ratio, one per entry
Please state the value as a number alone, without comment.

Incoming: Give the reported value of aptazyme ON/OFF ratio for this record: U7C U8C G9U U10C U11C C12A C13A
Outgoing: 1.12
